# Test system: LXRa homodimer (NR concentration 270 nM)
# assay-info: PBM binding z-score (relative to random genomic background probes); higher = stronger binding; sequences stand for … in GC…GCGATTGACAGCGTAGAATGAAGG
metric: PBM binding z-score
Quick one: just the number, no unit, thanks!

Asked: What does the record list as PBM binding z-score for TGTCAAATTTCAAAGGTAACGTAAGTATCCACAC ?
Given back: -0.0184

Asked: Recorded PBM binding z-score of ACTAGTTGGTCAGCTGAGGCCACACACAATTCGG , please.
Given back: -0.2

Asked: Item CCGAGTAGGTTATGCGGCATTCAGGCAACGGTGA has what recorded PBM binding z-score?
Given back: -0.177

Asked: Would you mind telling me what PBM binding z-score value was observed for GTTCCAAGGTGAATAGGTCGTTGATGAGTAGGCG ?
Given back: -0.00758

Asked: Value lookup for PBM binding z-score; key = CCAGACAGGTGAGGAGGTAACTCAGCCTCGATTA
Given back: 0.253

Asked: I have this sequence here, ATCGAAAGGTCGTGAGGTGAGTATCCAGAAAGGC , and I need its recorded PBM binding z-score.
Given back: 0.195

Asked: Item ATCTTTAGGTAAGACTCAGTTCAGTGAAGAACGC has what recorded PBM binding z-score?
Given back: 0.392

Asked: // returns reported PBM binding z-score for input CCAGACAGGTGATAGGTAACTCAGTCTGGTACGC
Given back: -0.151

Asked: PBM binding z-score lookup needed for TCTAGCAGGCCAGAGGGTGACTCAAGAGGTACGG , thanks.
Given back: -0.795

Asked: What value of PBM binding z-score has been reported for the following sequence? GCTGCTAGGTCAACTGATGGACAGCTAAAGCTCG
Given back: -0.308

Asked: // query PBM binding z-score value for entry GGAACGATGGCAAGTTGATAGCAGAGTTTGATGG
Given back: -0.63
